Numbers sourced from PubChem BioAssay AID2060361.

- Test system: 463943-066-T-J2-PDC tumor spheroids with HUVEC/MSC, viability;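 further: spheroids exposed to drugs for seven days; 100% = DMSO vehicle control wells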
- protocol: Anticancer human tumor 463943-066-T-J2-PDC patient-derived colon adenocarcinoma cell line growth inhibition [TAK]
- recorded conditions: second compound 3 µM; first compound 0.0316 µM; stronger effect = lower value
reported endpoint: viability, T/C (%)
Report only the number, with the unit % understood.

Known results for molecules:
>  <molecule>
CC(C)(C)c1nc(-c2cccc(NS(=O)(=O)c3c(F)cccc3F)c2F)c(-c2ccnc(N)n2)s1 + CC(C)NCC(C(=O)N1CCN(c2ncnc3c2C(C)CC3O)CC1)c1ccc(Cl)cc1

>  <test system>
463943-066-T-J2-PDC tumor spheroids with HUVEC/MSC, viability;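 further: spheroids exposed to drugs for seven days; 100% = DMSO vehicle control wells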

>  <reported endpoint>
viability, T/C

>  <quantitative result>
99

$$$$
>  <molecule>
COC1CC2CCC(C)C(O)(O2)C(=O)C(=O)N2CCCCC2C(=O)OC(C(C)CC2CCC(OCCO)C(OC)C2)CC(=O)C(C)C=C(C)C(O)C(OC)C(=O)C(C)CC(C)C=CC=CC=C1C (stereo unspecified) + CC(C)NCC(C(=O)N1CCN(c2ncnc3c2C(C)CC3O)CC1)c1ccc(Cl)cc1

>  <test system>
463943-066-T-J2-PDC tumor spheroids with HUVEC/MSC, viability;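 further: spheroids exposed to drugs for seven days; 100% = DMSO vehicle control wells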

>  <reported endpoint>
viability, T/C

>  <quantitative result>
78.2

$$$$
>  <molecule>
Cc1nc(NC(=O)N2CCCC2C(N)=O)sc1-c1ccnc(C(C)(C)C(F)(F)F)c1 (stereo unspecified) + CC(C)NCC(C(=O)N1CCN(c2ncnc3c2C(C)CC3O)CC1)c1ccc(Cl)cc1

>  <test system>
463943-066-T-J2-PDC tumor spheroids with HUVEC/MSC, viability;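 further: spheroids exposed to drugs for seven days; 100% = DMSO vehicle control wells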

>  <reported endpoint>
viability, T/C

>  <quantitative result>
98

$$$$
>  <molecule>
CC(C)CC(NC(=O)CNC(=O)c1cc(Cl)ccc1Cl)B1OC(=O)CC(CC(=O)O)(C(=O)O)O1 (stereo unspecified) + CC(C)NCC(C(=O)N1CCN(c2ncnc3c2C(C)CC3O)CC1)c1ccc(Cl)cc1

>  <test system>
463943-066-T-J2-PDC tumor spheroids with HUVEC/MSC, viability;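 further: spheroids exposed to drugs for seven days; 100% = DMSO vehicle control wells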

>  <reported endpoint>
viability, T/C

>  <quantitative result>
83.5

$$$$
>  <molecule>
COc1c(OCCCN2CCOCC2)ccc2c3n(c(=NC(=O)c4cnc(N)nc4)nc12)CCN3 + CC(C)NCC(C(=O)N1CCN(c2ncnc3c2C(C)CC3O)CC1)c1ccc(Cl)cc1

>  <test system>
463943-066-T-J2-PDC tumor spheroids with HUVEC/MSC, viability;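 further: spheroids exposed to drugs for seven days; 100% = DMSO vehicle control wells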

>  <reported endpoint>
viability, T/C

>  <quantitative result>
83.5

$$$$

Problem: Please report the recorded viability, T/C for CC(C)n1nc(-c2ccc3oc(N)nc3c2)c2c(N)ncnc21 + CC(C)NCC(C(=O)N1CCN(c2ncnc3c2C(C)CC3O)CC1)c1ccc(Cl)cc1 .
Solution: 85.3
